// data source = ChEMBL document CHEMBL1201862

# ASSAYED SYSTEM: Galanin receptor type 3 (Homo sapiens)
# Sequence (O60755 whole entry): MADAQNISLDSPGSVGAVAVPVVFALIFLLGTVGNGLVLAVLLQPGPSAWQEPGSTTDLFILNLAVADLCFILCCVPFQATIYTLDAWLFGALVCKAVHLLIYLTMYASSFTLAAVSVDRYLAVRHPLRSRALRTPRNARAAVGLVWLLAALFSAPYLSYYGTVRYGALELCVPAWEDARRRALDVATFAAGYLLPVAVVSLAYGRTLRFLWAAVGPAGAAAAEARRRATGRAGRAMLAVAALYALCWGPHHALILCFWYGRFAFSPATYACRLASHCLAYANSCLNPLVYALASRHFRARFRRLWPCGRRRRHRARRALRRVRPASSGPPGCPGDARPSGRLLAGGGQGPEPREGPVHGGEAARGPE
# TEST NAME: Fluorescence-based cell-based primary high throughput dose response assay to identify antagonists of the Galanin Receptor 3 (GalR3).
# Assay type: functional
Activity calls are given as the source filed them.
Outcomes: active, inactive

1. Cc1cc2c(ccc3c2no[n+]3[O-])nn1 = inactive
2. Fc1ccc(CN2CCN(c3ncc(Cc4ccccc4)cn3)CC2)c(Cl)c1 = active
3. Cc1cc(NC(=O)COC(=O)C(Cc2ccccc2)NC(=O)c2ccco2)no1 (centres undefined) = inactive
4. CCCCCCn1c(NCC)nc2c1c(=O)n(C)c(=O)n2C = active

---

# AC50 per record follows
# TEST NAME: blockers of HIV-1 envelope-mediated cell-cell fusion – cherry-pick, dose response (AID 652057)
# Assay type: functional, cell-based
Calls of active or inactive are those of the source.
READOUT NAME: AC50

1) COc1ccc(Cn2nnnc2C(c2cc3cc(C)cc(C)c3nc2O)N2CCOCC2)cc1 (centres undefined) = 3.39 µM (active)
2) Cc1ccc(S(=O)(=O)N(C)C[C@H]2Oc3cc(-c4cccc(F)c4)ccc3S(=O)(=O)N([C@@H](C)CO)C[C@H]2C)cc1 = 1.47 µM (active)
3) COc1ccc(CCC(C)NCc2cc(OC)cc(OC)c2)cc1 (centres undefined) = 6.55 µM (active)
4) Cc1ccc(S(=O)(=O)NCC(=O)OCC(=O)NCc2ccc3c(c2)OCO3)cc1 = 24 µM (active)

---

# ASSAYED SYSTEM: UniProt:Q8IL11
# TEST NAME: P. falciparum M17LAP inhibitors, primary screen, biochemical, fluorogenic H-Leu-NHMec substrate, 1536-well (AID 1619)
# Format: functional
Active and inactive are the calls of the source.
READOUT NAME: IC50

1. O=C(CSc1nc[nH]n1)Nc1ccc(S(=O)(=O)N2CCCC2)cc1 = 82.5 µM (active)
2. CCN(CC)c1ccc(NC(=O)CSc2nnc(N)s2)cc1C = 5.57 µM (active)
3. CCOc1ccccc1C1C(C#N)=C(N)Nc2onc(-c3ccccc3)c21 (configuration not stated) = 52.7 µM (active)
4. CC1=C(C(=O)OCc2ccccc2)C(c2ccc(Cl)cc2Cl)NC(=O)N1CCCCCC(=O)O (configuration not stated) = 20.4 µM (active)
5. O=C(O)C1CC=CCC1C(=O)Nc1ccc(F)c(F)c1 (configuration not stated) = 20.4 µM (active)
6. O=Cc1cc(N=Nc2cccc(C(=O)O)c2)ccc1O = 51.5 µM (active)
7. CC(C)CC(=O)n1sc(NC(=O)c2ccccc2)nc1=O = 43.9 µM (active)

---

# ASSAYED SYSTEM: Glucose-6-phosphate 1-dehydrogenase (Homo sapiens, UniProt P11413)
# Sequence (P11413 whole entry): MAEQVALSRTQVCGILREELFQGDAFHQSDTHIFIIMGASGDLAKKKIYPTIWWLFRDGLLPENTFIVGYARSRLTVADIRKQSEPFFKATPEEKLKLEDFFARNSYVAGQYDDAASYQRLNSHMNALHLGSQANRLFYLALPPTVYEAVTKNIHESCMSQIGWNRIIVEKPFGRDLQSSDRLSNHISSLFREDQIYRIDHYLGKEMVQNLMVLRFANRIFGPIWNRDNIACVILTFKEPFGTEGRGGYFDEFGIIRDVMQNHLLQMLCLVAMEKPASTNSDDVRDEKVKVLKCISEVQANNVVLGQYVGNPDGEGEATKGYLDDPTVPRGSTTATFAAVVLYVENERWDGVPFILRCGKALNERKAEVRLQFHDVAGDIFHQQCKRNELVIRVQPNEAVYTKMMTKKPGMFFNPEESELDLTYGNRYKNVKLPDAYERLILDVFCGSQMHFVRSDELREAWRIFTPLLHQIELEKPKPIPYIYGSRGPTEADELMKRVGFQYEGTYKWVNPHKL
# TEST NAME: inhibition of Homo sapiens G6PD, dose series – biochemical, fluorescence, selectivity assay for P. falciparum G6PD inhibitor project, dose response (AID 504792)
# Type: functional
The source made the active and inactive calls.
Entries and their IC50
READOUT NAME: IC50

1. COc1ccc(CCn2c(NN=C3CCCC3)nc3c2c(=O)[nH]c(=O)n3C)cc1 = > 80 µM (inactive)
2. CCOc1ccc(S(=O)(=O)Nc2cc(SCC(=O)O)c(O)c3ccccc23)cc1 = 28.4 µM (inactive)
3. CCn1c([N+](=O)[O-])nc2c1c(=O)[nH]c(=O)n2C = > 80 µM (inactive)
4. COc1cccc(CNc2ccc3[nH]c(O)nc3c2)c1OCc1ccc(F)cc1 = > 80 µM (inactive)
5. CC(Cc1ccc(O)c(O)c1)C(C)Cc1ccc(O)c(O)c1 (stereo unspecified) [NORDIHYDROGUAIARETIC ACID] = > 80 µM (inactive)
6. Cc1ccc(/C=C/C(=O)NC2CCCCCCC2)o1 = > 80 µM (inactive)

---

Each item that follows carries a reported AC50.
# ASSAYED SYSTEM: Cytochrome P450 2D6 (Homo sapiens);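 also: CYP2D6 member of a cytochrome P450 panel assay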
# Sequence (P10635 whole entry): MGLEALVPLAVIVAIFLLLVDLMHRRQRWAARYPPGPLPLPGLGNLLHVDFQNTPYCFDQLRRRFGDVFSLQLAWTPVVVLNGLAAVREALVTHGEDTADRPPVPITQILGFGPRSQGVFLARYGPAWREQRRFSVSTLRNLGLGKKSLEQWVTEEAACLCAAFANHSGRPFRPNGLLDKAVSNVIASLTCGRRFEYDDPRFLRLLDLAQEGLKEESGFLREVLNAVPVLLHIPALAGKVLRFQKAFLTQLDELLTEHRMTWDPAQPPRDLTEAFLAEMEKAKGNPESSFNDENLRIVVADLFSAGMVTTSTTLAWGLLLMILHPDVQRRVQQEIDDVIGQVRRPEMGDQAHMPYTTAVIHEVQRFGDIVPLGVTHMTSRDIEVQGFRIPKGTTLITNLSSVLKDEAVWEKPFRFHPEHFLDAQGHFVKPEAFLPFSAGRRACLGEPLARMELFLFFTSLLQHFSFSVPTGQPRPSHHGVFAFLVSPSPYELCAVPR
READOUT NAME: AC50

1) CN(C)C(=O)c1ccc(-c2cc(NCc3ccccc3)ncn2)cc1 = 39.8 µM (inconclusive)
2) CO/N=C(/CNC(=O)c1ccc(Cl)cc1Cl)c1ccc(Cl)cc1 = 2 µM (inconclusive)
3) CCN(CC)C[C@@H](O)CN1CCCCc2nc(C)c(C)cc21 = 2.51 µM (inconclusive)
4) C[C@](O)(C(=O)Nc1ccc(S(=O)(=O)c2ccccc2)cc1)C(F)(F)F = 31.6 µM (inconclusive)
5) COc1cccc(-c2nc(Nc3ccncc3)c3ccccc3n2)c1 = 25.1 µM (inconclusive)
6) CCOc1c2ccc(C(=O)NCc3cc(C(F)(F)F)cc(C(F)(F)F)c3)cc2nn1C = 20 µM (inconclusive)
7) Cc1ccc(C(=O)NN2CCOCC2)cc1 = 0.224 µM (inconclusive)
8) CC(C)NCC[C@@H](O)c1cc2ccccc2o1 = 3.16 µM (inconclusive)
9) Cc1ccc(OCC(=O)Nn2cnc3ccccc32)cc1 = 10 µM (inconclusive)
10) CCc1cc2c(nc1CC)CCN(CC/C(C)=N/OC[C@H]1O[C@H](c3ccccc3)C=C[C@@H]1Oc1ccc(OC)cc1)C2 = 6.31 µM (inconclusive)
11) COc1cccc(-c2ccc3ncnc(N4CCOCC4)c3c2)c1 = 31.6 µM (inconclusive)
12) Cc1cccc(CNc2ncncc2-c2cccc(C#N)c2)c1 = 31.6 µM (inconclusive)
13) COC(=O)[C@@]1(Cc2ccc(OC)cc2)[C@H]2c3cc(C(=O)N(C)C)n(Cc4ccc(C)c(F)c4F)c3C[C@H]2CN1C(=O)c1ccccc1 = 12.6 µM (inconclusive)
14) CCN(CC)C(=O)CSc1nc2ccc(NC(=O)CSc3nnc(COc4ccccc4C)n3C)cc2s1 = 14.1 µM (inconclusive)

---

The entries below come with measured IC50 values attached.
# ASSAYED SYSTEM: Polyadenylate-binding protein 1 (Homo sapiens)
# Sequence (P11940 whole entry): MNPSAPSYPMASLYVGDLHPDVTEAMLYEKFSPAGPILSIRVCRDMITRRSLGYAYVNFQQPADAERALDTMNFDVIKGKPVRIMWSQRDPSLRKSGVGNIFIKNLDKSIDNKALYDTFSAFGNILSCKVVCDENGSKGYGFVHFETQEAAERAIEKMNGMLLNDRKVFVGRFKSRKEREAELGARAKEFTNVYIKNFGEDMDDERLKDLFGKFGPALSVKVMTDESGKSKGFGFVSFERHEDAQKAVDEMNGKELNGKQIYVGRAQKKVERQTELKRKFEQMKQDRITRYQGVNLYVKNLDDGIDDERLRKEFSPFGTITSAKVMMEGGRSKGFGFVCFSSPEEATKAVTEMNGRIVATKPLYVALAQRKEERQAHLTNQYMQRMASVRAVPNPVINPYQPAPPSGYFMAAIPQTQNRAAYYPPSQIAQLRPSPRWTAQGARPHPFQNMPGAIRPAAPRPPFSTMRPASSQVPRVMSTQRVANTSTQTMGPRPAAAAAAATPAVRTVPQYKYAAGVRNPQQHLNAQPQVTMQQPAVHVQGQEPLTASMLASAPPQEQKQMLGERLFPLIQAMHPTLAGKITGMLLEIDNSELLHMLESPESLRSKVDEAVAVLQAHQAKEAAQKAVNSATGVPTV
# TEST NAME: MLLE binding blockers, Cy5 peptide tracer – biochemical, fluorescence polarization, Cy5-PAM2 peptide, secondary, miRNA deadenylation inhibitor project, dose response (AID 602260)
# Type: functional
# CONDITIONS: read-out: IC50_Mean
Calls of active or inactive are those of the source.
READOUT NAME: IC50

1) Nc1nnc(S)n1N=C1C(=O)Nc2ccccc21 = > 66 µM (inactive)
2) O=C(CSc1nc(O)c(Cc2ccccc2)c(=O)[nH]1)Nc1ccccc1 = > 66 µM (inactive)
3) COc1ccc(N=C(S)NC(NC(=O)c2cccc(Cl)c2)C(Cl)(Cl)Cl)c([N+](=O)[O-])c1 (stereo unspecified) = > 66 µM (inactive)
4) CC(NC(=O)CSC1=NCCS1)c1ccccc1 (stereo unspecified) = > 66 µM (inactive)
5) O=C(COc1ccccc1)Nc1nc(-c2ccncc2)cs1 = > 66 µM (inactive)
6) Cc1cc(C)cc(N2C(=O)CC(Sc3ccccc3C(=O)O)C2=O)c1 (stereo unspecified) = > 66 µM (inactive)
7) N=C(N)SCP(=O)(c1ccccc1)c1ccccc1 = > 66 µM (inactive)
8) O=C(NC(=S)Nc1ccc(Oc2ccccc2)cc1)c1ccc(Cl)cc1 = > 66 µM (inactive)
9) COP(=S)(OC)Oc1ccc(Sc2ccc(OP(=S)(OC)OC)cc2)cc1 [TEMEFOS] = > 66 µM (inactive)
10) CC(OC(=O)CSc1ccc([N+](=O)[O-])cc1)C(=O)NC1CC1 (stereo unspecified) = > 66 µM (inactive)
11) CC(=O)N1C(=O)/C(=C2\SC(=S)N(c3c(C)n(C)n(-c4ccccc4)c3=O)C2=O)c2ccccc21 = > 66 µM (inactive)

---

# Tested on: Vero
# TEST NAME: cells
# Type: functional, cell-based, Chlorocebus sabaeus
# CONDITIONS: Chlorocebus sabaeus, Vero
Active and inactive are the calls of the source.
Readings of IC50 for the listed molecules
READOUT NAME: IC50

1) O=C(CSc1nc2ccccc2n1-c1ccccc1)Nc1ncc(Cl)cc1Cl = 4.63 µM (active)
2) CNCCNC[C@H](Cc1cccc2ccccc12)NCCc1ccccc1 = 20.4 µM (active)
3) C[C@]12CCCC[C@@H]1CC[C@@H]1[C@@H]2CC[C@@]2(C)[C@H]1CC[C@@]2(O)CNCCO = > 12.5 µM (active)
4) CC(=NNc1nc2ccccc2o1)c1ncccn1 = > 25 µM (active)

---

# ASSAYED SYSTEM: UniProtKB P49327
# Sequence (P49327 whole entry): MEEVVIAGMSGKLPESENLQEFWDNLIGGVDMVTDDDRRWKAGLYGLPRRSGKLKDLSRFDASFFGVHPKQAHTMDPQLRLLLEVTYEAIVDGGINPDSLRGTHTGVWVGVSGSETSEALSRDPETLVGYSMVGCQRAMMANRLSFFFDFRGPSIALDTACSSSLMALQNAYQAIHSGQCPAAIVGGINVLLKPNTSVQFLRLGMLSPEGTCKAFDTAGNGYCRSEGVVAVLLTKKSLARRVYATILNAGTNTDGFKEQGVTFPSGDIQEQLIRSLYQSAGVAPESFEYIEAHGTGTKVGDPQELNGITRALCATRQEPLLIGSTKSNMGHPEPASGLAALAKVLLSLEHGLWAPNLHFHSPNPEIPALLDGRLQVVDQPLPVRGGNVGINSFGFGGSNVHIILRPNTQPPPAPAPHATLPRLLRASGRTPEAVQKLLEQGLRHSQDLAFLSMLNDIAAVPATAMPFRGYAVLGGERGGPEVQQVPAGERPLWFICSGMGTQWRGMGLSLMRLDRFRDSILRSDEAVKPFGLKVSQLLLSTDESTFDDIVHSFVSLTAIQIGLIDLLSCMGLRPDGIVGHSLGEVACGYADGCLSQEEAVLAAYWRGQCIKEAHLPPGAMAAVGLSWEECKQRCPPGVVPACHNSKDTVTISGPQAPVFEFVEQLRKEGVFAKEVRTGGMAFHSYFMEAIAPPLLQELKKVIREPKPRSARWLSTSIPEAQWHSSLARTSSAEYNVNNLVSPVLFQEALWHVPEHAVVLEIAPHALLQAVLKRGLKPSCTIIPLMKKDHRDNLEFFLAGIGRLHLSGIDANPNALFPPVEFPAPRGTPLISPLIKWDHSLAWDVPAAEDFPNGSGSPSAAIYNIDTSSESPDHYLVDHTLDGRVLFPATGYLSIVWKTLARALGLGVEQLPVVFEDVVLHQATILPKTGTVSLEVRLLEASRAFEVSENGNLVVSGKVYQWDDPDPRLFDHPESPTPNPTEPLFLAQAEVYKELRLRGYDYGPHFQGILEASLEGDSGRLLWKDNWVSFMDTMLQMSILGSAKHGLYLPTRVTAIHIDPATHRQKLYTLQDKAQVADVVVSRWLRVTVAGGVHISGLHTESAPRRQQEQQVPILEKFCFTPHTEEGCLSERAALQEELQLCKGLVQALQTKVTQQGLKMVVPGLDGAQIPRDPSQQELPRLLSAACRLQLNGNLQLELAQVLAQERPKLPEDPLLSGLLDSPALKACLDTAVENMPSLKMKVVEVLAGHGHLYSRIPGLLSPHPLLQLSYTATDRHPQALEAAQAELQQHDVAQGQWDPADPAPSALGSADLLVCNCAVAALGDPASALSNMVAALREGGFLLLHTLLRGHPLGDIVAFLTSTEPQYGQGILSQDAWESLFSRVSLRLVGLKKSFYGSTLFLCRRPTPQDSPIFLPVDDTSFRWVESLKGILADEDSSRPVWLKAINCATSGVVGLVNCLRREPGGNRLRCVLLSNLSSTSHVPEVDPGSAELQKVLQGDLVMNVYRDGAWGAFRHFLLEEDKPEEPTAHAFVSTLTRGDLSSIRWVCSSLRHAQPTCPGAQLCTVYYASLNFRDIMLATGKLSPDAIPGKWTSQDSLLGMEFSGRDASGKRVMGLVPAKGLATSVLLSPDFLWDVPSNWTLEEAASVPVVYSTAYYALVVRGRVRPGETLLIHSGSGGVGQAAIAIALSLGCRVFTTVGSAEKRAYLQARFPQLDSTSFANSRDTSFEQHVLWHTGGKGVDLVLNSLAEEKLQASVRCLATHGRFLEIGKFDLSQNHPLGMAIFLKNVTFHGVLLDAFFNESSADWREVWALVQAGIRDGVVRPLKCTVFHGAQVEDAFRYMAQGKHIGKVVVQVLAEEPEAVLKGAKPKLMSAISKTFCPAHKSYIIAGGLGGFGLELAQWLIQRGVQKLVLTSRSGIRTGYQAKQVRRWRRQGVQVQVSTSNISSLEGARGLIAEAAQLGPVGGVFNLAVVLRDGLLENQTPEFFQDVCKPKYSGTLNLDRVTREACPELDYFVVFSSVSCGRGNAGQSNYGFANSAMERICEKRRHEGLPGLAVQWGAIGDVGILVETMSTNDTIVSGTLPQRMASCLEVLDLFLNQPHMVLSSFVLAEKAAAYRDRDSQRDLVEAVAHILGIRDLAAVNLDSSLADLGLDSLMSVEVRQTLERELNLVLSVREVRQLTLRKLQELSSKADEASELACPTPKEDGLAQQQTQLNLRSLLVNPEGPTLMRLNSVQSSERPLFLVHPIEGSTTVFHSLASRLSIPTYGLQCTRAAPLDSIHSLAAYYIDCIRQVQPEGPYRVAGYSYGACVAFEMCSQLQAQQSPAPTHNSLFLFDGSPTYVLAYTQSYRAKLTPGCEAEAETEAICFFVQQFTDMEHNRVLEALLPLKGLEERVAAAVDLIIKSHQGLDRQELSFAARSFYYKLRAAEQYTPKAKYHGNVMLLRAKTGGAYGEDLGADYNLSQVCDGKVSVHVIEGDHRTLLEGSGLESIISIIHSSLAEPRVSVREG
# TEST NAME: inhibition of human FAS-TE enzyme activity – biochemical, kinetic fluorescence intensity, dose response (AID 624326);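 also: rate of fluorescence rise from hydrolysis of a fluorogenic O-methyl fluorescein ester substrate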
# Type: functional
The source made the active and inactive calls.
READOUT NAME: IC50

1. Cn1c(-c2ccccc2)cnc1NCc1cccc([N+](=O)[O-])c1 = 8.79 µM (active)
2. CCS(=O)(=O)c1ccc(-c2csc(-c3ccc(Cl)cc3)n2)c(Cl)c1Cl = 1.86 µM (active)
3. N#Cc1cc(-c2ccccc2)cn(Cc2c(Cl)cccc2Cl)c1=O = 8.23 µM (active)
4. Cc1c(Br)c([N+](=O)[O-])nn1CC(=O)Nc1ccc(Cc2ccncc2)cc1 = 8.12 µM (active)
5. O=C(COC(=O)CCc1c[nH]c2ccccc12)Nc1cc([N+](=O)[O-])ccc1Cl = 10.7 µM (active)
6. O=C(c1ccc(Cl)c([N+](=O)[O-])c1)N1CCN(S(=O)(=O)c2ccc(Cl)cc2)CC1 = 16.2 µM (active)
7. O=C(CN1CCN(c2ccccc2)CC1)Nc1cccc([N+](=O)[O-])c1 = 10.7 µM (active)
8. O=C(CCNC(=O)c1ccc([N+](=O)[O-])cc1)NCCc1ccc(Cl)cc1 = 7.38 µM (active)
9. O=[N+]([O-])c1cccc(NC(=S)N2CCc3ccccc3C2)c1 = 10.6 µM (active)
